- EXPERIMENT_NOTES: small-molecule microarray binders of probe aShh, primary screen, biochemical, biotinylated probe, 635/667 nm fluorescence (AID 1114);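 also: probe is biotin-labelled aShh protein from a stem cell growth factor screen; measures binding of labelled protein to compounds printed on the slide; score merges feature fluorescence at 667 nm with signal-to-noise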
- ASSAY_SETUP: higher = more signal
# reported composite z-score; entries follow

{"COMPOUND": "CC(=O)N1Cc2ccccc2C[C@@]2(COC(c3ccc(OCCCO)cc3)=N2)C1=O", "composite z-score": 0.412}
{"COMPOUND": "C=CCOC(=O)[C@@H]1[C@H]2C(=O)O[C@H](c3ccccc3)[C@H](c3ccccc3)N2[C@H](c2ccc(OCCOC(=O)[C@@H]3C[C@@H]4C(=O)N[C@@H](CCCCN(C)C)C(=O)N4[C@@H]3c3ccc(O)cc3)cc2)[C@@]12C(=O)Nc1ccc(I)cc12", "composite z-score": 0.432}
{"COMPOUND": "C=CCN(Cc1ccccc1)C(=O)C(c1cccs1)N(CCOCCO)C(=O)/C=C\\C(=O)O (centres undefined)", "composite z-score": -0.0035}

Data request: Identify the reported composite z-score for the following entry. CC(C)C[C@@H]1NC(=O)[C@H]2C[C@@H](C(=O)NCCCCCCN(C)C)[C@@H](c3ccc(O)cc3)N2C1=O
Data returned: 0.207

----------
- EXPERIMENT_NOTES: modulators of HCV replicon luciferase signal, primary screen, HCV replication inhibitor project, Huh7 cells, luciferase reporter (AID 1109);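 also: huh7 hepatoma cells harbouring a luciferase neomycin HCV replicon reporter; luciferase luminescence as measure of HCV replicon replication; test concentration not given here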
- ASSAY_SETUP: 48 h, higher = more signal
Tick 1 if z-score is -0.7 or greater. Tick -1 if z-score is less than -0.7.

These recorded examples may help you get a feel for the data.
{"COMPOUND": "COc1ccc([Si](C)(C)[C@H]2[C@H](CC(=O)N3Cc4ccccc4C[C@H]3CO)O[C@@]3(C(=O)N(Cc4ccc(N5CCC5=O)cc4)c4ccccc43)[C@@H]2C)cc1", "QUALITATIVE_LABEL": -1}
{"COMPOUND": "CC(=O)NCCCC[C@@H]1NC(=O)[C@@H]2C[C@H](C(=O)NCCCCN(C)C)[C@H](c3cccc(OCCO)c3)N2C1=O", "QUALITATIVE_LABEL": 1}
{"COMPOUND": "CC(C)(C)OC(=O)CC[C@]12N=C(c3ccc(OCCCO)cc3)O[C@H]1c1ccccc1N(CCS(=O)(=O)c1ccccc1)C2=O", "QUALITATIVE_LABEL": 1}
{"COMPOUND": "O=C1O[C@H](c2ccccc2)[C@H](c2ccccc2)N2[C@H]1[C@@H](C(=O)NC[C@H](O)c1ccccc1)[C@]1(C(=O)Nc3ccccc31)[C@H]2c1ccc(OCCO)cc1", "QUALITATIVE_LABEL": -1}

Data request: Quick check, z-score >= -0.7? O=C1NC(=O)C2C1C=CC(C(O)c1cccc3ccccc13)N2Nc1ccccn1 (centres undefined)
Data returned: 1

Data request: Does the compound CC(=O)NCCCC[C@@H]1NC(=O)[C@@H]2C[C@H](C(=O)NCCCCCCNC(=O)CS)[C@H](c3cccc(OCCO)c3)N2C1=O have recorded z-score that is -0.7 or more?
Data returned: -1

Data request: Could you verify whether the entry COc1ccc(CCNC(=O)[C@@]2(Sc3ccc(C)cc3)CC(=O)N(C3CCCCC3)[C@@H]2c2ccc(CO)cc2I)cc1 shows z-score of no less than -0.7?
Data returned: -1

Data request: // inclusive: z-score at least -0.7? input: CC(C)C(CO)N1C(=O)[C@@H]2[C@H]3C(=O)OCC=C[C@H]3OC23C=CCN(C(C)C)C(=O)[C@@H]13 (some centres undefined)
Data returned: 1

Data request: Please indicate if the recorded z-score for COc1ccc([Si](C)(C)[C@@H]2[C@@H](CC(=O)N3Cc4ccccc4C[C@H]3CO)O[C@]3(C(=O)N(C)c4c(Br)cc(C)cc43)[C@H]2C)cc1 meets or exceeds -0.7.
Data returned: -1

----------
- Tested on: glycogen synthase kinase-3 (GSK3A per assay name; protocol says GSK3B)
- EXPERIMENT_NOTES: GSK3 binders on small-molecule microarrays, primary screen, biochemical, small-molecule microarray, 635 nm fluorescence, GSK3A (AID 1103); also: the record names both GSK3A and GSK3B
- ASSAY_SETUP: small-molecule microarray binding, fluorescence 635 nm; higher = more signal
Lab note: compare composite z-score against 0.6. Equal or greater, write true (1). Smaller, write false (0).

# example entries with known answers
{"MOLECULE": "O=C(C1N=C(c2ccc(OCCCO)cc2)N(c2ccccc2)O1)N1CCOCC1 (stereo not drawn)", "STUDY_SYSTEM": "glycogen synthase kinase-3 (GSK3A per assay name; protocol says GSK3B)", "QUALITATIVE_LABEL": "true (1)"}
{"MOLECULE": "CC(C)c1ccc(NN2C(C(O)C(c3ccccc3)c3ccccc3)C=CC3C(=O)N(c4ccccc4)C(=O)C32)cc1 (stereo not drawn)", "STUDY_SYSTEM": "glycogen synthase kinase-3 (GSK3A per assay name; protocol says GSK3B)", "QUALITATIVE_LABEL": "true (1)"}
{"MOLECULE": "CN(C)C(=O)[C@]1(Cc2ccccc2N=[N+]=[N-])N=C(c2ccc(OCCCO)cc2)O[C@@H]1c1ccccc1", "STUDY_SYSTEM": "glycogen synthase kinase-3 (GSK3A per assay name; protocol says GSK3B)", "QUALITATIVE_LABEL": "true (1)"}
{"MOLECULE": "[N-]=[N+]=Nc1ccccc1C[C@]1(C(=O)NCC(O)CO)N=C(c2ccc(OCCCO)cc2)O[C@H]1c1ccccc1N=[N+]=[N-] (stereo partly drawn)", "STUDY_SYSTEM": "glycogen synthase kinase-3 (GSK3A per assay name; protocol says GSK3B)", "QUALITATIVE_LABEL": "false (0)"}
{"MOLECULE": "CC(C)OC(=O)C=C1C[C@@H](c2ccccc2C(F)(F)F)O[C@@H](c2ccccc2C(F)(F)F)O1", "STUDY_SYSTEM": "glycogen synthase kinase-3 (GSK3A per assay name; protocol says GSK3B)", "QUALITATIVE_LABEL": "false (0)"}

Data request: Does COCCOC(=O)N1C(=O)[C@@]2(c3cc(C#CC4=CCCCC4)ccc31)[C@H](C(=O)Nc1nc3ccccc3s1)[C@H]1C(=O)O[C@H](c3ccccc3)[C@H](c3ccccc3)N1[C@@H]2c1ccccc1OCCO have a reported composite z-score of at least 0.6?
Data returned: true (1)

Data request: Record COCCCN1C(=O)[C@@]2(Cc3ccccc31)c1ccccc1C(=O)N(Cc1ccccc1C(F)(F)F)[C@H]2c1ccc(CO)cc1 ; criterion: composite z-score no lower than 0.6. Met?
Data returned: false (0)

----------
- EXPERIMENT_NOTES: binders of probe aHhip on microarray, primary screen, stem cell growth factor project, biochemical, small-molecule microarray, fluorescence 635/667 (AID 1087);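 also: score merges spot fluorescence at 667nm with spot signal to noise ratio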
- ASSAY_SETUP: higher = more signal
Record Criterion met whenever composite z-score is at -0.06 or higher; record Criterion not met when lower.

{"COMPOUND": "[N-]=[N+]=Nc1ccccc1C[C@]1(C(N)=O)N=C(c2ccc(OCCCO)cc2)O[C@H]1c1ccccc1", "QUALITATIVE_LABEL": "Criterion met"}

Data request: Check if composite z-score >= -0.06 (inclusive). Item: C=CCC(OC(C)=O)[C@@H]1[C@@H](N(Cc2ccc(-c3cccc(C(F)(F)F)c3)o2)C(=O)c2ccc(-c3ccccc3)cc2)c2cc(OCCCO)ccc2N1C(=O)c1ccc(-c2ccccc2)cc1 (stereo not given in full)
Data returned: Criterion not met

Data request: Is the recorded value of composite z-score equal to or greater than -0.06 for this compound? CN1C(=O)C2C=CC(C(O)C3=C[C@H]4C[C@@H](C3)C4(C)C)N(Nc3ccccc3)C2C1=O (stereo not given in full)
Data returned: Criterion met

----------
Reported composite z-score values for a set of compounds
- STUDY_SYSTEM: Albumin (Bos taurus) (UniProt P02769)
- Sequence (P02769 whole entry, looked up): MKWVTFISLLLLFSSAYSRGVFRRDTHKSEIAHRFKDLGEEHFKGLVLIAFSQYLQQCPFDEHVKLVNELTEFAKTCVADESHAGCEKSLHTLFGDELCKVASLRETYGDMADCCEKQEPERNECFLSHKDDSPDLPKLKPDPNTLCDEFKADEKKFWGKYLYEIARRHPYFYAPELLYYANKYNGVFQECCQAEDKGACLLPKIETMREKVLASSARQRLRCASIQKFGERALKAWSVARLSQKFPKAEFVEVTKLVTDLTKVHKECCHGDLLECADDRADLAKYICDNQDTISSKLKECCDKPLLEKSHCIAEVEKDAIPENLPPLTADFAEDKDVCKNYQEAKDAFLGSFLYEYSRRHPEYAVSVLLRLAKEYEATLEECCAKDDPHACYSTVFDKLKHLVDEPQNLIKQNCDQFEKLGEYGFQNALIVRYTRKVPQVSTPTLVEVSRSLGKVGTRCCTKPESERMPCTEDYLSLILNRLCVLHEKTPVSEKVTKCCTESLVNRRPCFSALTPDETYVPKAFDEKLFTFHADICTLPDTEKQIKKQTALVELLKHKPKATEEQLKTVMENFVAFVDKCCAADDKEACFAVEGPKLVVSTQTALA
- EXPERIMENT_NOTES: bovine serum albumin binders on microarray, profiling panel, artefact control for SMM control protein annotation, biochemical, small-molecule microarray, Alexa647 label, 635/667 nm fluorescence (AID 1118);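 also: score merges 667 nm emission intensity and signal-to-noise per printed compound spot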
- ASSAY_SETUP: BSA-A647 binding, fluorescence 635 nm, higher = more signal
The answer should be written as a number, with no unit following it.

{"COMPOUND": "CCCCC(=C=CC[C@@H](O)c1ccccc1OCCO)CCO", "STUDY_SYSTEM": "Albumin (Bos taurus) (UniProt P02769)", "QUANTITY_NAME": "composite z-score", "TEST_RESULT": 0.694}
{"COMPOUND": "CCOC(=O)[C@H]1C/C=C/C[C@H](C(=O)OCC)C(=O)O[C@H]2[C@@H](OC)O[C@H](CO)[C@@H](OC(=O)Nc3ccc(C#N)cc3)[C@@H]2OC1=O", "STUDY_SYSTEM": "Albumin (Bos taurus) (UniProt P02769)", "QUANTITY_NAME": "composite z-score", "TEST_RESULT": 0.842}
{"COMPOUND": "COC(=O)C(CC#Cc1ccc2c(c1)[C@]1(C(=O)N2)[C@H](c2ccc(O)cc2)N2[C@H](c3ccccc3)[C@H](c3ccccc3)OC(=O)[C@H]2[C@@H]1C(=O)Nc1nc2ccccc2s1)C(=O)OC", "STUDY_SYSTEM": "Albumin (Bos taurus) (UniProt P02769)", "QUANTITY_NAME": "composite z-score", "TEST_RESULT": 0.847}
{"COMPOUND": "CC(=O)n1cc(C(O)C2C=CC3C(=O)N(C)C(=O)C3N2Nc2ccccc2)c2ccccc21 (stereo not drawn)", "STUDY_SYSTEM": "Albumin (Bos taurus) (UniProt P02769)", "QUANTITY_NAME": "composite z-score", "TEST_RESULT": 0.712}
{"COMPOUND": "CCCCN1CC=CC23O[C@@H]4/C=C\\CCC(C)OC(=O)C4[C@H]2C(=O)N(CCCCCO)[C@@H]3C1=O (stereo partly drawn)", "STUDY_SYSTEM": "Albumin (Bos taurus) (UniProt P02769)", "QUANTITY_NAME": "composite z-score", "TEST_RESULT": -1.05}

Data request: Specify reported composite z-score for the compound shown: O=C1O[C@H](c2ccccc2)[C@H](c2ccccc2)N2[C@H]1[C@@H](C(=O)NC[C@H](O)c1ccccc1)[C@]1(C(=O)Nc3ccccc31)[C@H]2c1ccc(OCCO)cc1
Data returned: 0.466

Data request: Supply recorded composite z-score for CCOc1cc(C(O)C2C=CC3C(=O)N(c4ccccc4)C(=O)C3N2Nc2ccccc2)ccc1O (stereo not drawn) here.
Data returned: 0.0944

Data request: Supply reported composite z-score belonging to this compound: O=C1OCCC/C=C\[C@H]2OC34C=CCN(CCN5CCOCC5)C(=O)[C@H]3N(CCCO)C(=O)[C@@H]4C12 (stereo partly drawn)
Data returned: -0.843
